Reported EC50 by item:
SUBJECT OF TEST: TRβ (Homo sapiens, UniProt P10828)
Sequence (P10828 217-461 limits assumed): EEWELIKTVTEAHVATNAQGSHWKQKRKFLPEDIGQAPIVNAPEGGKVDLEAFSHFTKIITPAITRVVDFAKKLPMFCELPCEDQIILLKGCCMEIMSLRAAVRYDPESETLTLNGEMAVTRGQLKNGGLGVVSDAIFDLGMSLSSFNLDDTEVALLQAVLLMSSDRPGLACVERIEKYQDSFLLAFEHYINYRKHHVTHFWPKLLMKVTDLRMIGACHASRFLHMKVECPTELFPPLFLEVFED
METHOD DESCRIPTION: Thyroid-hormone reporter-gene assay, TRβ (Gal4 DBD hybrid, luciferase, HEK293)
MEASUREMENT CONDITIONS: reporter cells derived from HEK293, 24 hr incubation, luciferase readout

>  <MOLECULE>
CCOC(=O)c1cccc(-c2cc(Cc3c(Cl)cc(OCC(=O)O)cc3Cl)ccc2O)c1

>  <EC50>
> 1000 nM

$$$$
>  <MOLECULE>
Cc1cc(OCC(=O)O)cc(Cl)c1Cc1ccc(O)c(-c2cccc(C(F)(F)F)c2)c1

>  <EC50>
100 to 1000 nM

$$$$
>  <MOLECULE>
O=C(O)COc1cc(Cl)c(Cc2ccc(O)c(-c3cc(Cl)cs3)c2)c(Cl)c1

>  <EC50>
> 1000 nM

$$$$
>  <MOLECULE>
O=C(O)COc1cc(Cl)c(Cc2ccc(O)c(C(c3ccc(F)cc3)C3CC3)c2)c(Cl)c1 (centres unmarked)

>  <EC50>
10 to 100 nM

$$$$
>  <MOLECULE>
CS(=O)(=O)c1cccc(-c2cc(Cc3c(Cl)cc(OCC(=O)O)cc3Cl)ccc2O)c1

>  <EC50>
> 1000 nM

$$$$
>  <MOLECULE>
CC(C)c1cccc(-c2cc(Cc3c(Cl)cc(OCC(=O)O)cc3Cl)ccc2O)c1

>  <EC50>
100 to 1000 nM

$$$$
>  <MOLECULE>
O=C(O)COc1cc(Cl)c(Cc2ccc(O)c(-c3cccc(C(F)(F)F)c3)c2)c(Cl)c1

>  <EC50>
100 to 1000 nM

$$$$
>  <MOLECULE>
O=C(O)COc1cc(Cl)c(Cc2ccc(O)c(Cc3ccc(F)cc3)c2)c(Cl)c1

>  <EC50>
100 to 1000 nM

$$$$
>  <MOLECULE>
C[C@H](c1ccc(F)cc1)c1cc(Cc2c(Cl)cc(OCC(=O)O)cc2Cl)ccc1O (single isomer, unassigned)

>  <EC50>
< 10 nM

$$$$
>  <MOLECULE>
CC(=O)c1cccc(-c2cc(Cc3c(Cl)cc(OCC(=O)O)cc3Cl)ccc2O)c1

>  <EC50>
> 1000 nM

$$$$
>  <MOLECULE>
O=C(O)COc1cc(Cl)c(Cc2ccc(O)c(-c3cccc(C(F)(F)C(F)(F)F)c3)c2)c(Cl)c1

>  <EC50>
> 1000 nM

$$$$
>  <MOLECULE>
O=C(O)COc1cc(Cl)c(Cc2ccc(O)c(-c3ccc(F)c(OC(F)F)c3)c2)c(Cl)c1

>  <EC50>
> 1000 nM

$$$$
>  <MOLECULE>
O=C(O)COc1cc(Cl)c(Cc2ccc(O)c(Cc3cncnc3)c2)c(Cl)c1

>  <EC50>
> 1000 nM

$$$$
>  <MOLECULE>
O=C(O)COc1cc(Cl)c(Cc2ccc(O)c(Cc3ccc(F)cc3F)c2)c(Cl)c1

>  <EC50>
100 to 1000 nM

$$$$
>  <MOLECULE>
O=C(O)COc1cc(Cl)c(Cc2ccc(O)c(-c3ccc(C(F)(F)F)s3)c2)c(Cl)c1

>  <EC50>
> 1000 nM

$$$$
>  <MOLECULE>
Cc1cc(OCC(=O)O)cc(Br)c1Cc1ccc(O)c(C(C)c2ccc(F)cc2)c1 (centres unmarked)

>  <EC50>
< 10 nM

$$$$
>  <MOLECULE>
O=C(O)COc1cc(Cl)c(Cc2ccc(O)c(CCc3ccc(F)cc3)c2)c(Cl)c1

>  <EC50>
> 1000 nM

$$$$
>  <MOLECULE>
O=C(O)COc1cc(Cl)c(Cc2ccc(O)c(C3CCCc4cc(F)ccc43)c2)c(Cl)c1 (centres unmarked)

>  <EC50>
100 to 1000 nM

$$$$
>  <MOLECULE>
COCC(c1ccc(F)cc1)c1cc(Cc2c(Cl)cc(OCC(=O)O)cc2Cl)ccc1O (centres unmarked)

>  <EC50>
100 to 1000 nM

$$$$
>  <MOLECULE>
Cc1cc(OCC(=O)O)cc(Br)c1Cc1ccc(O)c(-c2cccc(OC(F)F)c2)c1

>  <EC50>
10 to 100 nM

$$$$
>  <MOLECULE>
O=C(O)COc1cc(Cl)c(Cc2ccc(O)c(Cc3ccncc3)c2)c(Cl)c1

>  <EC50>
> 1000 nM

$$$$
>  <MOLECULE>
C=C(C)c1cccc(-c2cc(Cc3c(Cl)cc(OCC(=O)O)cc3Cl)ccc2O)c1

>  <EC50>
> 1000 nM

$$$$
>  <MOLECULE>
CC(c1ccc(F)cc1)c1cc(Cc2c(Cl)cc(OCC(=O)O)cc2Cl)ccc1O (centres unmarked)

>  <EC50>
10 to 100 nM

$$$$
>  <MOLECULE>
O=C(O)COc1cc(Cl)c(Cc2ccc(O)c(-c3ccsc3)c2)c(Cl)c1

>  <EC50>
100 to 1000 nM

$$$$
>  <MOLECULE>
CC(C)(c1ccc(F)cc1)c1cc(Cc2c(Cl)cc(OCC(=O)O)cc2Cl)ccc1O

>  <EC50>
10 to 100 nM

$$$$
>  <MOLECULE>
CCc1cccc(-c2cc(Cc3c(Cl)cc(OCC(=O)O)cc3Cl)ccc2O)c1

>  <EC50>
100 to 1000 nM

$$$$
>  <MOLECULE>
CC(C)C(c1ccc(F)cc1)c1cc(Cc2c(Cl)cc(OCC(=O)O)cc2Cl)ccc1O (centres unmarked)

>  <EC50>
10 to 100 nM

$$$$
>  <MOLECULE>
O=C(O)COc1cc(Cl)c(Cc2ccc(O)c(Cc3ccsc3)c2)c(Cl)c1

>  <EC50>
100 to 1000 nM

$$$$
>  <MOLECULE>
Cc1cccc(-c2cc(Cc3c(Cl)cc(OCC(=O)O)cc3Cl)ccc2O)c1

>  <EC50>
100 to 1000 nM

$$$$
>  <MOLECULE>
O=C(O)COc1cc(Cl)c(Cc2ccc(O)c(C(c3ccc(F)cc3)C3CCC3)c2)c(Cl)c1 (centres unmarked)

>  <EC50>
100 to 1000 nM

$$$$
>  <MOLECULE>
O=C(O)COc1cc(Cl)c(Cc2ccc(O)c(C3CCc4cc(F)ccc43)c2)c(Cl)c1 (centres unmarked)

>  <EC50>
> 1000 nM

$$$$
>  <MOLECULE>
O=C(O)COc1cc(Cl)c(Cc2ccc(O)c(Cc3cccs3)c2)c(Cl)c1

>  <EC50>
100 to 1000 nM

$$$$
